log10 Ki for 5-hydroxytryptamine receptor 6 (Homo sapiens, UniProt P50406) - collated from the literature.
In plain terms, each number is the log10 of measured Ki in nM.

Qu. Give log10 Ki only, for "CNc1cc(NS(=O)(=O)c2ccc(N)cc2)nc(NC)n1" , using 5-hydroxytryptamine receptor 6 (Homo sapiens, UniProt P50406) data.
Ans. 1.71

Qu. Give log10 Ki only, for CC1CCCCN1c1nc2c(S(=O)(=O)c3ccccc3)nnn2c2ccccc12 (stereo unspecified) , using 5-hydroxytryptamine receptor 6 (Homo sapiens, UniProt P50406) data.
Ans. 1.29

Qu. Give log10 Ki only, for "CCCCCCOc1nsnc1C1=CCCN(C)C1" , using 5-hydroxytryptamine receptor 6 (Homo sapiens, UniProt P50406) data.
Ans. 3.10

Qu. Give log10 Ki only, for "COc1ccc2c(c1)c(OCCN(C)C)c1n2S(=O)(=O)c2ccccc2-1" , using 5-hydroxytryptamine receptor 6 (Homo sapiens, UniProt P50406) data.
Ans. 2.10

Qu. Give log10 Ki only, for "CC(C)Nc1nc2c(S(=O)(=O)c3ccccc3)nnn2c2ccccc12" , using 5-hydroxytryptamine receptor 6 (Homo sapiens, UniProt P50406) data.
Ans. 1.69

Qu. Give log10 Ki only, for "CN(C)CCON=C(C=Cc1ccc(O)cc1)c1ccccc1F" , using 5-hydroxytryptamine receptor 6 (Homo sapiens, UniProt P50406) data.
Ans. 3.59

Qu. Give log10 Ki only, for CCC(C)Nc1nc2c(S(=O)(=O)c3cc(C)ccc3C)nnn2c2ccccc12 (stereo unspecified) , using 5-hydroxytryptamine receptor 6 (Homo sapiens, UniProt P50406) data.
Ans. 1.22

Qu. Give log10 Ki only, for CN(C)CCC1=C2c3ccccc3S(=O)(=O)C2c2ccc(F)cc21 (stereo unspecified) , using 5-hydroxytryptamine receptor 6 (Homo sapiens, UniProt P50406) data.
Ans. 2.43

Qu. Give log10 Ki only, for CC(C)Oc1ccc2c(c1)C(CC(C)N(C)C)=C1c3ccccc3S(=O)(=O)C12 (stereo unspecified) , using 5-hydroxytryptamine receptor 6 (Homo sapiens, UniProt P50406) data.
Ans. 2.38

Qu. Give log10 Ki only, for "Cc1nc2sccn2c(=O)c1CCN1CCC(=C(c2ccc(F)cc2)c2ccc(F)cc2)CC1" , using 5-hydroxytryptamine receptor 6 (Homo sapiens, UniProt P50406) data.
Ans. 1.20

Qu. Give log10 Ki only, for "O=S(=O)(c1ccccc1)c1nnn2c1nc(NC1CCCC1)c1ccccc12" , using 5-hydroxytryptamine receptor 6 (Homo sapiens, UniProt P50406) data.
Ans. 1.11

Qu. Give log10 Ki only, for CC1CCCCC1Nc1nc2c(S(=O)(=O)c3ccccc3)nnn2c2ccccc12 (stereo unspecified) , using 5-hydroxytryptamine receptor 6 (Homo sapiens, UniProt P50406) data.
Ans. 0.46

Qu. Give log10 Ki only, for CCC(CC1=C2c3ccccc3S(=O)(=O)C2c2ccc(OC)cc21)N(C)C (stereo unspecified) , using 5-hydroxytryptamine receptor 6 (Homo sapiens, UniProt P50406) data.
Ans. 1.45

Qu. Give log10 Ki only, for "CC(C)c1cc(-c2ccc(F)c3ccccc23)nc(N)n1" , using 5-hydroxytryptamine receptor 6 (Homo sapiens, UniProt P50406) data.
Ans. 3.00

Qu. Give log10 Ki only, for "O=S(=O)(c1ccccc1)c1nnn2c1nc(NC1CCCCC1)c1ccccc12" , using 5-hydroxytryptamine receptor 6 (Homo sapiens, UniProt P50406) data.
Ans. 0.70

Qu. Give log10 Ki only, for CC(CC1=C2c3ccccc3S(=O)(=O)C2c2ccc(OCc3ccccc3)cc21)N(C)C (stereo unspecified) , using 5-hydroxytryptamine receptor 6 (Homo sapiens, UniProt P50406) data.
Ans. 2.00
